Biological target: AXL (fusion protein of amino acids 464-885 of the intracellular domain of human AXL with glutathione transferase) (Homo sapiens)
Test: Cell-Free Axl Kinase Inhibitory Activity
pIC50: −log10 of the molar value.
quantity: pIC50

See these solved cases before continuing.
>  <compound>
Nc1ncc(-c2cnn(C[C@H]3COCCO3)c2)cc1-c1ccc(NC(=O)c2cn(Cc3ccc(F)cc3)cc(C(=O)N3CCC(F)(F)C3)c2=O)cc1 [Example 73]

>  <pIC50>
7.70 to 8.00

$$$$
>  <compound>
COc1ccnc(N)c1-c1ccc(NC(=O)c2cn(CC(F)(F)F)cc(-c3ccc(F)cc3)c2=O)cc1F [Example 85]

>  <pIC50>
9.00 to 10.00

$$$$

For reference, reported pIC50 for COc1cc(-c2cnc(N)c(-c3ccc(NC(=O)c4cn(CC(F)(F)F)cc(-c5ccc(F)cc5)c4=O)cc3)c2)ccc1O [Example 37] stands at 8.00 to 9.00

For reference, reported pIC50 for COc1ccc(-c2cnc(N)c(-c3ccc(NC(=O)c4c[nH]cc(-c5ccc(F)cc5)c4=O)cc3)c2)cc1OC [Example 1] stands at 8.00 to 9.00

For reference, reported pIC50 for Nc1ncc(-c2cccc(Cl)c2)cc1-c1ccc(NC(=O)c2cn(CC(F)(F)F)cc(-c3ccc(F)cc3)c2=O)cc1 [Example 36] stands at 7.70 to 8.00

For reference, reported pIC50 for Nc1ncc(-c2cnn(C[C@H]3COCCO3)c2)cc1-c1ccc(NC(=O)c2cn(Cc3ccc(F)cc3)cc(C(=O)N3CCCC3)c2=O)cc1F [Example 76] stands at 9.00 to 10.00

###

Reported pIC50 values follow for various compounds
Biological target: AXL (fusion protein of amino acids 464-885 of the intracellular domain of human AXL with glutathione transferase) (Homo sapiens)
Sequence (P30530 464-885 isoform P30530-2): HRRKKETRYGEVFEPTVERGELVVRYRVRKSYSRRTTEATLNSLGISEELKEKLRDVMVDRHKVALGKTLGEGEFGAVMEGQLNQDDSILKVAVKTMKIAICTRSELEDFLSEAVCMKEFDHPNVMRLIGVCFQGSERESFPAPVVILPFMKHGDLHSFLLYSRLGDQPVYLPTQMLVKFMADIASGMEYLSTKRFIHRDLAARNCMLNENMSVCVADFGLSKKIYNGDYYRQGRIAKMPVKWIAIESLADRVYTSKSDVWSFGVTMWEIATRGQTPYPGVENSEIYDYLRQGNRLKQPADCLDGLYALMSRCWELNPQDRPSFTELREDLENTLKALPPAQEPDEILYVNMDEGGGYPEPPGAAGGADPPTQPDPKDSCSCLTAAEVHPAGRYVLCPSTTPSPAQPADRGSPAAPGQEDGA
Assay: Cell-Free Axl Kinase Inhibitory Activity
pIC50: −log10 of the molar value.

For reference, reported pIC50 for Cn1cc(-c2cnc(N)c(-c3ccc(NC(=O)c4cn(Cc5ccccc5)cc(-c5ccc(F)cc5)c4=O)cc3)c2)cn1 [Example 51] stands at 9.00 to 10.00

For reference, reported pIC50 for Nc1ncc(-c2cnn(C[C@H]3COCCO3)c2)cc1-c1ccc(NC(=O)c2cn(CCF)cc(-c3ccccc3)c2=O)cc1F [Example 75] stands at 8.00 to 9.00

For reference, reported pIC50 for COc1ccc(-c2cnc(N)c(-c3ccc(NC(=O)c4cn(CC(F)(F)F)cc(-c5ccc(F)cc5)c4=O)cc3F)c2)cc1OC [Example 29] stands at 9.00 to 10.00

For reference, reported pIC50 for Cc1cc(=O)c(C(=O)Nc2ccc(-c3cc(-c4cnn(C)c4)cnc3N)cc2)cn1Cc1ccc(F)cc1 [Example 57] stands at 8.00 to 9.00

For reference, reported pIC50 for CN(C)C(=O)c1cn(Cc2ccc(F)cc2)cc(C(=O)Nc2ccc(-c3cc(-c4cnn(C)c4)cnc3N)cc2)c1=O [Example 60] stands at 8.00 to 9.00

For reference, reported pIC50 for Cn1cc(-c2cnc(N)c(-c3ccc(NC(=O)c4cn(CCF)cc(-c5ccc(F)cc5)c4=O)cc3)c2)cn1 [Example 48] stands at 8.00 to 9.00

For reference, reported pIC50 for COc1ccc(-c2cnc(N)c(-c3ccc(NC(=O)c4cn(CC(F)(F)F)cc(-c5ccccc5)c4=O)cc3)c2)cc1OC [Example 20] stands at 8.00 to 9.00

For reference, reported pIC50 for COc1cc(-c2cnc(N)c(-c3ccc(NC(=O)c4cn(Cc5ccccc5)cc(-c5ccc(F)cc5)c4=O)cc3)c2)ccc1OC[C@H]1COCCO1 [Example 41] stands at 8.00 to 9.00

For reference, reported pIC50 for COc1ccc(-c2cnc(N)c(-c3ccc(NC(=O)c4cn(Cc5ccc(F)cc5)cc(-c5nnc(C)o5)c4=O)cc3)c2)cc1OC [Example 28] stands at 9.00 to 10.00

For reference, reported pIC50 for Cn1cc(-c2cnc(N)c(-c3ccc(NC(=O)c4cn(CCF)cc(-c5ccccc5)c4=O)cc3)c2)cn1 [Example 53] stands at 8.00 to 9.00

For reference, reported pIC50 for COCCn1cc(C(=O)Nc2ccc(-c3cc(-c4ccc(OC)c(OC)c4)cnc3N)cc2)c(=O)c(-c2ccc(F)cc2)c1 [Example 5] stands at 9.00 to 10.00

For reference, reported pIC50 for COc1ccc(-c2cnc(N)c(-c3ccc(NC(=O)c4cn(CC(F)(F)F)cc(-c5ccc(F)cc5)c4=O)cc3)c2)cc1O [Example 88] stands at 8.00 to 9.00

###

Molecular target: phosphorylated Axl (pAxl Y702) in NCI-H1299 cells (Homo sapiens, UniProt P30530)
Construct: endogenous in cells
Assay: Intracellular Axl Phosphorylation Inhibitory Activity (pAxl, NCI-H1299 cells)
Settings: 1 h compound incubation, GAS6 stimulation 10 minutes, pAxl (Y702) level
Reported IC50 values follow for various molecules

For reference, reported IC50 for CN1CC=C(c2cnc(N)c(-c3ccc(NC(=O)c4cn(CC(F)(F)F)cc(-c5ccc(F)cc5)c4=O)cc3)c2)CC1 [Example 79] stands at 50 to 100 nM

For reference, reported IC50 for COc1ccc(-c2cnc(N)c(-c3ccc(NC(=O)c4c[nH]cc(-c5ccc(F)cc5)c4=O)cc3)c2)cc1OC [Example 1] stands at 50 to 100 nM

For reference, reported IC50 for CC(=O)N1C2C=C(c3cnc(N)c(-c4ccc(NC(=O)c5cn(CCF)cc(-c6ccc(F)cc6)c5=O)cc4)c3)CC1CC2 (stereo not shown) [Example 81] stands at 100 to 500 nM

For reference, reported IC50 for COc1cccc(-c2cnc(N)c(-c3ccc(NC(=O)c4cn(CC(F)(F)F)cc(-c5ccc(F)cc5)c4=O)cc3)c2)c1 [Example 33] stands at 50 to 100 nM

For reference, reported IC50 for COc1ccc(-c2cnc(N)c(-c3ccc(NC(=O)c4cn(CCOC5CCCCO5)cc(-c5ccc(F)cc5)c4=O)cc3)c2)cc1OC (racemic) [Example 6] stands at 100 to 500 nM

For reference, reported IC50 for Cc1ccc(-c2cnc(N)c(-c3ccc(NC(=O)c4cn(CC(F)(F)F)cc(-c5ccc(F)cc5)c4=O)cc3)c2)cc1 [Example 35] stands at 100 to 500 nM

For reference, reported IC50 for CCn1cc(C(=O)Nc2ccc(-c3cc(-c4ccc(OC)c(OC)c4)cnc3N)cc2)c(=O)c(-c2ccccc2)c1 [Example 18] stands at 50 to 100 nM

###

Target: AXL (fusion protein of amino acids 464-885 of the intracellular domain of human AXL with glutathione transferase) (Homo sapiens)
Sequence (P30530 464-885 isoform P30530-2): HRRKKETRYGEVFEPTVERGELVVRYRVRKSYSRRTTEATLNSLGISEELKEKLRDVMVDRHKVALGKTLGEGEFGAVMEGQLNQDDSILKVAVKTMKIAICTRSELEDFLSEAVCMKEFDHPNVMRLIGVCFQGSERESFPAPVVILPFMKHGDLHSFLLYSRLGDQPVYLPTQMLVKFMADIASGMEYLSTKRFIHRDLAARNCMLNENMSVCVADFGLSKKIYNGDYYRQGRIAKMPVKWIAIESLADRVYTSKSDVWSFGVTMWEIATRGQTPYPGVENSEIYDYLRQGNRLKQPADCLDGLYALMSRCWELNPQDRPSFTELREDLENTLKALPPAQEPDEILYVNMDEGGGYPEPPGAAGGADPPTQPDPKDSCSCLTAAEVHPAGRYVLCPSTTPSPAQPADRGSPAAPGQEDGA
Experiment: Cell-Free Axl Kinase Inhibitory Activity
quantity: IC50

>  <molecule>
Nc1ncc(-c2ccccc2)cc1-c1ccc(NC(=O)c2cn(CC(F)(F)F)cc(-c3ccc(F)cc3)c2=O)cc1 [Example 31]

>  <IC50>
1 to 10 nM

$$$$
>  <molecule>
Nc1ncc(-c2cnn(C[C@H]3COCCO3)c2)cc1-c1ccc(NC(=O)c2cn(Cc3ccc(F)cc3)cc(C(=O)N3CCCC3)c2=O)cc1 [Example 71]

>  <IC50>
0.1 to 1 nM

$$$$
>  <molecule>
COc1ccc(-c2cnc(N)c(-c3ccc(NC(=O)c4cn(CC(F)(F)F)cc(-c5ccc(C)cc5)c4=O)cc3)c2)cc1OC [Example 24]

>  <IC50>
0.1 to 1 nM

$$$$
>  <molecule>
Cn1cc(-c2cnc(N)c(-c3ccc(NC(=O)c4cn(CC(F)(F)F)cc(-c5ccc(F)cc5)c4=O)cc3)c2)cn1 [Example 50]

>  <IC50>
0.1 to 1 nM

$$$$

For reference, reported IC50 for Cc1cn(Cc2ccc(F)cc2)cc(C(=O)Nc2ccc(-c3cc(-c4cnn(C)c4)cnc3N)cc2)c1=O [Example 58] stands at 1 to 10 nM

For reference, reported IC50 for CN1CC=C(c2cnc(N)c(-c3ccc(NC(=O)c4cn(CC(F)(F)F)cc(-c5ccc(F)cc5)c4=O)cc3)c2)CC1 [Example 79] stands at 1 to 10 nM

For reference, reported IC50 for COc1ccc(-c2cnc(N)c(-c3ccc(NC(=O)c4cn(C)cc(-c5ccc(F)cc5)c4=O)cc3)c2)cc1OC [Example 2] stands at 1 to 10 nM
